Recorded measurements of half-life at 1 µM, one per entry
Protocol Summary: Half life in human liver S9 fraction at 1 uM in presence of NADPH
Type: ADME, subcellular
# unit: min | format: bare number

Cc1cc(-c2ccc(C(=O)c3cc(F)cc(O)c3C)s2)cc(C)c1O : 22
Cc1cc(-c2ccc(C(=O)c3cc(F)c(F)c(O)c3C)s2)cc(C)c1O : 28
Cc1cc(-c2ccc(C(=O)c3cccc(O)c3C)s2)cc(C)c1O : 25

Now consider a different compound.
Which half-life at 1 µM reading was recorded for the compound "NS(=O)(=O)Oc1ccc(-c2ccc(C(=O)c3cc(F)c(F)c(O)c3F)s2)cc1" ?
55
